Each entry below carries its reported IC50.
measurementTarget: Chemerin-like receptor 1 (Homo sapiens)
Sequence (Q99788 whole entry): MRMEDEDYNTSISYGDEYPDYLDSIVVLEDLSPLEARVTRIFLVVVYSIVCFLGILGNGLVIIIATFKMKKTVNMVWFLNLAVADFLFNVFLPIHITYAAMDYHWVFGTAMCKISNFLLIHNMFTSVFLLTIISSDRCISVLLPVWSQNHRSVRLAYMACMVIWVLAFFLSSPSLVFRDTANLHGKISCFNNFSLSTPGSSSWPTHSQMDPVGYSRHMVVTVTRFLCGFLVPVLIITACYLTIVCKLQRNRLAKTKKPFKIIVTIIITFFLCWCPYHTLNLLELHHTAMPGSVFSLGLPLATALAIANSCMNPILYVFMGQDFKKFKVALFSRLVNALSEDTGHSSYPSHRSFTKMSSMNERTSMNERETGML
testDescription: Displacement of [125I]-chemerin from ChemR23 (unknown origin) transfected in mouse BaF3 cells after 3 hrs by scintillation counting method
Format: cell-based

The following compounds have reported results that may help.
{"compound": "CC[C@@]1(C(=O)Nc2cc(N(C)C)cc(C(F)(F)F)c2)CN(c2c(C)cccc2C)C(=O)[C@H]1C", "measurementTarget": "Chemerin-like receptor 1 (Homo sapiens)", "reported": "30 to 300 nM"}
{"compound": "CO[C@@H]1CC2C(=O)N(c3c(C)cccc3C)CC2(C(=O)Nc2cc(C(F)(F)F)cc(C(F)(F)F)c2)C1 (stereo partly specified)", "measurementTarget": "Chemerin-like receptor 1 (Homo sapiens)", "reported": "≤ 30 nM"}
{"compound": "Cc1cccc(C)c1N1CC(C(=O)Nc2cc(C(F)(F)F)cc(C(F)(F)F)c2)(C2=CCN(C(=O)OC(C)(C)C)CC2)CC1=O (stereo unspecified)", "measurementTarget": "Chemerin-like receptor 1 (Homo sapiens)", "reported": "≤ 30 nM"}
{"compound": "Cc1cccc(C)c1N1C[C@@](CN(C)CCF)(C(=O)Nc2cc(C(F)(F)F)cc(C(F)(F)F)c2)[C@H](C)C1=O", "measurementTarget": "Chemerin-like receptor 1 (Homo sapiens)", "reported": "≤ 30 nM"}
{"compound": "CCN(C[C@@]1(C(=O)Nc2cc(C(F)(F)F)cc(C(F)(F)F)c2)CN(c2c(C)cccc2C)C(=O)[C@H]1C)C(C)C", "measurementTarget": "Chemerin-like receptor 1 (Homo sapiens)", "reported": "≤ 30 nM"}

Given the entry CC[C@@]1(C(=O)Nc2cc(C(F)(F)F)cc(C(F)(F)F)c2)CN(c2c(C)cccc2C)C(=O)[C@@H]1C , what IC50 was observed with Chemerin-like receptor 1 (Homo sapiens)?
30 to 300 nM
